All figures here come from the supplement of paper PMC10307832.

The following compounds are listed with their measured relative viability values.
# Tested on: NCI-H2405
# assay_notes: relative viability (nuclei count vs DMSO), 5 days (fraction); higher = more cells survive
# measurement_context: first compound 4 µM
Format: numeric value only, no unit, no commentary.

Example entries and their recorded answers appear below.
* COc1cc(N2CCC(C(N)=O)CC2)ccc1Nc1nc(N)c(Cl)c(Nc2ccccc2S(=O)(=O)C(C)C)n1 [HG-5-88-01] + Cc1nc(NC(=O)N2CCC[C@H]2C(N)=O)sc1-c1ccnc(C(C)(C)C(F)(F)F)c1 [Alpelisib] (partner 2 µM) | 0.794
* C[C@@H]1CN(CC(=O)Nc2ccc3c(c2)Cc2cccc(-c4cc(=O)cc(N5CCOCC5)o4)c2S3)C[C@H](C)O1 + Cc1nc(NC(=O)N2CCC[C@H]2C(N)=O)sc1-c1ccnc(C(C)(C)C(F)(F)F)c1 [Alpelisib] (partner 2 µM) | 0.698
* C[C@@H]1CN(CC(=O)Nc2ccc3c(c2)Cc2cccc(-c4cc(=O)cc(N5CCOCC5)o4)c2S3)C[C@H](C)O1 + CC1(C)CCC(c2ccc(Cl)cc2)=C(CN2CCN(c3ccc(C(=O)NS(=O)(=O)c4ccc(N[C@H](CCN5CCOCC5)CSc5ccccc5)c(S(=O)(=O)C(F)(F)F)c4)cc3)CC2)C1 [Navitoclax] (partner 0.5 µM) | 0.872

Note relative viability for the compound shown: COc1cc(N2CCC(C(N)=O)CC2)ccc1Nc1nc(N)c(Cl)c(Nc2ccccc2S(=O)(=O)C(C)C)n1 [HG-5-88-01] + CC(=O)Nc1cccc(-n2c(=O)n(C3CC3)c(=O)c3c(Nc4ccc(I)cc4F)n(C)c(=O)c(C)c32)c1 [Trametinib] (partner 0.02 µM)
0.545

Tell me measured relative viability for C[C@@H]1CN(CC(=O)Nc2ccc3c(c2)Cc2cccc(-c4cc(=O)cc(N5CCOCC5)o4)c2S3)C[C@H](C)O1 + Nc1nc2[nH]cc(CCc3ccc(C(=O)N[C@@H](CCC(=O)O)C(=O)O)cc3)c2c(=O)[nH]1 [Pemetrexed] (partner 0.2 µM) please.
1.03

Report measured relative viability; entry is Clc1ccc(Nc2nnc(Cc3ccncc3)c3ccccc23)cc1 [Vatalanib] + Cc1nc(NC(=O)N2CCC[C@H]2C(N)=O)sc1-c1ccnc(C(C)(C)C(F)(F)F)c1 [Alpelisib] (partner 2 µM)
0.773

* * *

# Test system: NCI-H596
# assay_notes: relative viability (nuclei count vs DMSO), 5 days (fraction); higher = more cells survive
# measurement_context: first compound 0.04 µM
parameter_measured: relative viability
Provide a numeric answer; units are not to be included.

A selection of reference data follows.
- COc1cc(N2CCC(C(N)=O)CC2)ccc1Nc1nc(N)c(Cl)c(Nc2ccccc2S(=O)(=O)C(C)C)n1 [HG-5-88-01] + Nc1ncn([C@H]2C[C@H](O)[C@@H](CO)O2)c(=O)n1 [Decitabine] (partner 2 µM): 1.02
- C[C@@H]1CN(CC(=O)Nc2ccc3c(c2)Cc2cccc(-c4cc(=O)cc(N5CCOCC5)o4)c2S3)C[C@H](C)O1 + CC(=O)Nc1cccc(-n2c(=O)n(C3CC3)c(=O)c3c(Nc4ccc(I)cc4F)n(C)c(=O)c(C)c32)c1 [Trametinib] (partner 0.02 µM): 0.771

Identify relative viability associated with the molecule Clc1ccc(Nc2nnc(Cc3ccncc3)c3ccccc23)cc1 [Vatalanib] + CC(=O)Nc1cccc(-n2c(=O)n(C3CC3)c(=O)c3c(Nc4ccc(I)cc4F)n(C)c(=O)c(C)c32)c1 [Trametinib] (partner 0.02 µM)
0.782

Give the reported relative viability for this molecule. COc1cc(N2CCC(C(N)=O)CC2)ccc1Nc1nc(N)c(Cl)c(Nc2ccccc2S(=O)(=O)C(C)C)n1 [HG-5-88-01] + COc1cccc2cc(-c3nc([C@H]4CC[C@H](C(=O)O)CC4)n4ncnc(N)c34)[nH]c12 [OSI-027] (partner 0.5 µM)
0.61

Please look at this molecule and report its relative viability: C[C@@H]1CN(CC(=O)Nc2ccc3c(c2)Cc2cccc(-c4cc(=O)cc(N5CCOCC5)o4)c2S3)C[C@H](C)O1 + CC1(C)CCC(c2ccc(Cl)cc2)=C(CN2CCN(c3ccc(C(=O)NS(=O)(=O)c4ccc(N[C@H](CCN5CCOCC5)CSc5ccccc5)c(S(=O)(=O)C(F)(F)F)c4)cc3)CC2)C1 [Navitoclax] (partner 0.5 µM)
0.958

* * *

# Test system: LU99A
# assay_notes: relative viability (nuclei count vs DMSO), 5 days (fraction); higher = more cells survive
# measurement_context: first compound 0.01 µM
parameter_measured: relative viability
# print the numeric value only

Worked cases, answers included:
- CC(C)Oc1cc(Nc2nc(N[C@@H](C)c3ccc(F)cn3)ncc2Cl)n[nH]1 [AZ23] + C[C@@H](Oc1cc(-c2cnn(C3CCNCC3)c2)cnc1N)c1c(Cl)ccc(F)c1Cl [Crizotinib] (partner 1 µM): 0.617
- CC(C)Oc1cc(Nc2nc(N[C@@H](C)c3ccc(F)cn3)ncc2Cl)n[nH]1 [AZ23] + N=C(N)NC(=N)NCCc1ccccc1 [Phenformin] (partner 250 µM): 0.912

Specify reported relative viability for the molecule shown: CC(C)Oc1cc(Nc2nc(N[C@@H](C)c3ccc(F)cn3)ncc2Cl)n[nH]1 [AZ23] + CCNC(=O)c1noc(-c2cc(C(C)C)c(O)cc2O)c1-c1ccc(CN2CCOCC2)cc1 [Luminespib] (partner 0.01 µM)
0.217

Specify relative viability for CC(C)Oc1cc(Nc2nc(N[C@@H](C)c3ccc(F)cn3)ncc2Cl)n[nH]1 [AZ23] + CS(=O)(=O)N1CCN(Cc2cc3nc(-c4cccc5[nH]ncc45)nc(N4CCOCC4)c3s2)CC1 [Pictilisib] (partner 1 µM) and stop.
0.292

* * *

# Test system: RERF-LC-KJ
# assay_notes: relative viability (nuclei count vs DMSO), 5 days (fraction); higher = more cells survive
# measurement_context: first compound 4 µM
parameter_measured: relative viability
I'd appreciate a reply containing only the number, no unit.

// solved cases for relative viability follow
* Clc1ccc(Nc2nnc(Cc3ccncc3)c3ccccc23)cc1 [Vatalanib] + Nc1nc2[nH]cc(CCc3ccc(C(=O)N[C@@H](CCC(=O)O)C(=O)O)cc3)c2c(=O)[nH]1 [Pemetrexed] (partner 0.2 µM) | 0.458
* C[C@@H]1CN(CC(=O)Nc2ccc3c(c2)Cc2cccc(-c4cc(=O)cc(N5CCOCC5)o4)c2S3)C[C@H](C)O1 + C[C@]1(O)C[C@@H](c2nc(-c3ccc4ccc(-c5ccccc5)nc4c3)c3c(N)nccn32)C1 [Linsitinib] (partner 1 µM) | 0.774
* COc1cc(N2CCC(C(N)=O)CC2)ccc1Nc1nc(N)c(Cl)c(Nc2ccccc2S(=O)(=O)C(C)C)n1 [HG-5-88-01] + Cc1cc(Nc2cc(N3CCN(C)CC3)nc(Sc3ccc(NC(=O)C4CC4)cc3)n2)n[nH]1 [Tozasertib] (partner 0.1 µM) | 0.174
* C[C@@H]1CN(CC(=O)Nc2ccc3c(c2)Cc2cccc(-c4cc(=O)cc(N5CCOCC5)o4)c2S3)C[C@H](C)O1 + O=C(CCCCCCC(=O)Nc1ccccc1)NO [Vorinostat] (partner 1 µM) | 0.543
* C[C@@H]1CN(CC(=O)Nc2ccc3c(c2)Cc2cccc(-c4cc(=O)cc(N5CCOCC5)o4)c2S3)C[C@H](C)O1 + CCNC(=O)c1noc(-c2cc(C(C)C)c(O)cc2O)c1-c1ccc(CN2CCOCC2)cc1 [Luminespib] (partner 0.01 µM) | 0.709

Please find the next compound below.
Using the record for Clc1ccc(Nc2nnc(Cc3ccncc3)c3ccccc23)cc1 [Vatalanib] + CC(C)C[C@H](NC(=O)[C@H](Cc1ccccc1)NC(=O)c1cnccn1)B(O)O [Bortezomib] (partner 0.002 µM) , state its measured relative viability.
0.969

* * *

# Test system: HCC-827
# assay_notes: relative viability (nuclei count vs DMSO), 5 days (fraction); higher = more cells survive
# measurement_context: first compound 0.1265 µM
Param label: returns true when relative viability < 0.3, returns false otherwise, including exact equality.

Examples with answers:
* Clc1ccc(Nc2nnc(Cc3ccncc3)c3ccccc23)cc1 [Vatalanib] + CS(=O)(=O)N1CCN(Cc2cc3nc(-c4cccc5[nH]ncc45)nc(N4CCOCC4)c3s2)CC1 [Pictilisib] (partner 1 µM) | false
* Clc1ccc(Nc2nnc(Cc3ccncc3)c3ccccc23)cc1 [Vatalanib] + NC(=O)Nc1cc(-c2cccc(F)c2)sc1C(=O)N[C@H]1CCCNC1 [AZD7762] (partner 0.2 µM) | true
* C[C@@H]1CN(CC(=O)Nc2ccc3c(c2)Cc2cccc(-c4cc(=O)cc(N5CCOCC5)o4)c2S3)C[C@H](C)O1 + CC(=O)c1c(C)c2cnc(Nc3ccc(N4CCNCC4)cn3)nc2n(C2CCCC2)c1=O [Palbociclib] (partner 0.5 µM) | false
* COc1cc(N2CCC(C(N)=O)CC2)ccc1Nc1nc(N)c(Cl)c(Nc2ccccc2S(=O)(=O)C(C)C)n1 [HG-5-88-01] + COc1cccc2cc(-c3nc([C@H]4CC[C@H](C(=O)O)CC4)n4ncnc(N)c34)[nH]c12 [OSI-027] (partner 0.5 µM) | false
* C[C@@H]1CN(CC(=O)Nc2ccc3c(c2)Cc2cccc(-c4cc(=O)cc(N5CCOCC5)o4)c2S3)C[C@H](C)O1 + NC(=O)Nc1cc(-c2cccc(F)c2)sc1C(=O)N[C@H]1CCCNC1 [AZD7762] (partner 0.2 µM) | true

Next item in the queue.
Regarding Clc1ccc(Nc2nnc(Cc3ccncc3)c3ccccc23)cc1 [Vatalanib] + Cc1nc(NC(=O)N2CCC[C@H]2C(N)=O)sc1-c1ccnc(C(C)(C)C(F)(F)F)c1 [Alpelisib] (partner 2 µM) , kindly confirm whether its relative viability is beneath 0.3.
false
